Molecular target: T1, human CDH6 on tumor cells (OVCAR3 cells, PA-1 cells) (human, UniProt P55285 54-790)
T1 sequence: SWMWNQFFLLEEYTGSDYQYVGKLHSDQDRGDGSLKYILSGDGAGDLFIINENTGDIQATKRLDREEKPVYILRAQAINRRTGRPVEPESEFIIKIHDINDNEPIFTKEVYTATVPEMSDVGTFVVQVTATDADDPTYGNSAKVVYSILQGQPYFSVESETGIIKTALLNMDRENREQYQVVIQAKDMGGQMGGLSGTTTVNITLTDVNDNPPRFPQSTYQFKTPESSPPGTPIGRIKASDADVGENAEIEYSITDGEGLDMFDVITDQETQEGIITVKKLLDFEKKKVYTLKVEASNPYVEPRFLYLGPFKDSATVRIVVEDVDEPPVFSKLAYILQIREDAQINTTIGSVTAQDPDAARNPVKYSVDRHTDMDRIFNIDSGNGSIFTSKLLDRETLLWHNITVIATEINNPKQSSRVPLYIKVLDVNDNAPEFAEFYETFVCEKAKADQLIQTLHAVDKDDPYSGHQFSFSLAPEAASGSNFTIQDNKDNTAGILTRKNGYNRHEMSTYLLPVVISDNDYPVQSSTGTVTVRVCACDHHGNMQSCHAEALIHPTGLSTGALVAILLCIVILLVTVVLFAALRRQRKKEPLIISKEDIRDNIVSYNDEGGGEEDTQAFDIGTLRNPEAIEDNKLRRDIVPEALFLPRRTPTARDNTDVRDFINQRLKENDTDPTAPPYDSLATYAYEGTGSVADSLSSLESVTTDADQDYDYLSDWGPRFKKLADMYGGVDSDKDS
Test: FACS, PA-1 cells
Value Type: Max MFI (MFI)

CHI-CDH6-11 (antibody, human IgG1, kappa, V domains shown, also called chimeric antibody of murine CDH6-11) VH: QIQLQQSGPELVKPGASVRISCKASGYTFTDYYITWVKLRPGQGLEWIGWIYPGSVNIKYNEKFKGKATLTVDTSSSTAYMQLNSLTSEDSAVYFCARGGYSWFPYWGQGTLVTVSA VL: NIVMTQSPKSMSMSVGERVTLSCKASENVHTYVSWYQQKPEQSPKLLFYGASTRNTGVPDRFTGSGSATDFTLTISSVQAEDLADYYCGQSYSYPYTFGSGTKLEIKR :: 4690
